Biological target: T1, human TGFβ2, mature receptor-binding domain (human, UniProt P09858 303-414 (pig entry), The mature TGFβ2 is a disulfide-linked homodimer of this 112-residue chain. The 4A11 epitope spans both monomers (p-1207).)
T1 construct: Peprotech; also called TGFb2
T1 sequence: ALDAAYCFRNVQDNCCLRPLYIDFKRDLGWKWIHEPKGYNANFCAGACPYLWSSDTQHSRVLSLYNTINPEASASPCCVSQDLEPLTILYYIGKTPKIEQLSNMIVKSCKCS
Assay: BIAcore T200
pKd: −log10 of the molar value.
# Lookup of reported pKd keyed by entry

binder: h2A10.v2.5 (antibody, human IgG1, kappa, N297G, V domains shown) VH: EVQLLESGGGLVQPGGSLRLSCAASGFDFNSYGMSWVRQAPGKGLEWVADIVSKTYNYTTYYSDSVKDRFTISRDDSKSTVYLQMNSLRAEDTAVYYCTVAPGGSFDYWGQGTLVTVSS VL: DIQLTQSPSSLSASVGDRVTITCRASQSVSISRFNLMHWYQHKPGKQPKLLIYRASNLASGIPSRFSGSGSGTDFTLTISSLQPEDFATYYCQHSRESPWTFGGGTKVEIKR
pKd: 8.55

binder: h2A10.v2.3 (antibody, human IgG1, kappa, N297G, V domains shown) VH: EVQLLESGGGLVQPGGSLRLSCAASGFDFNSYGMSWVRQAPGKGLELVADIVSKTYNYTTYYSDSVKDRFTISRDDSKSTVYLQMNSLRAEDTAVYYCTVAPGGSFDYWGQGTLVTVSS VL: DIQLTQSPSSLSASVGDRVTITCRASQSVSISRFNLMHWYQHKPGKAPKLLIYRASNLASGIPSRFSGSGSGTDFTLTISSLQPEDFATYYCQHSRESPWTFGGGTKVEIKR
pKd: 9.62

binder: h2A10.v2.2 (antibody, human IgG1, kappa, N297G, V domains shown) VH: EVQLLESGGGLVQPGGSLRLSCAASGFDFNSYGMSWVRQAPGKGLELVADIVSKTYNYTTYYSDSVKDRFTISRDDSKSTVYLQMNSLRAEDTAVYYCTVAPGGSFDYWGQGTLVTVSS VL: DIQLTQSPSSLSASVGDRVTITCRASQSVSISRFNLMHWYQQKPGKQPKLLIYRASNLASGIPSRFSGSGSGTDFTLTISSLQPEDFATYYCQHSRESPWTFGGGTKVEIKR
pKd: 9.91

binder: h2A10.v2.8 (antibody, human IgG1, kappa, N297G, V domains shown) VH: EVQLLESGGGLVQPGGSLRLSCAASGFDFNSYGMSWVRQAPGKGLELVADIVSKTYNYTTYYSDSVKDRFTISRDDSKNTVYLQMNSLRAEDTAVYYCTVAPGGSFDYWGQGTLVTVSS VL: DIQLTQSPSSLSASVGDRVTITCRASQSVSISRFNLMHWYQHKPGKQPKLLIYRASNLASGIPSRFSGSGSGTDFTLTISSLQPEDFATYYCQHSRESPWTFGGGTKVEIKR
pKd: 9.44
